In this section we review reported DILI_severity_class values for a set of compounds.
species: Homo sapiens; assay: Liver toxicity in human assessed as induction of drug-induced liver injury by measuring severity class index; note: key of the grades not given here
Kindly provide the number alone.

INSERT INTO assay_data (compound, val) VALUES
  ('CN(C)CC[C@@H](c1ccc(Cl)cc1)c1ccccn1 [DEXCHLORPHENIRAMINE]', 0),
  ('Cc1cc2c(cc1CC(=O)c1sccc1S(=O)(=O)Nc1onc(C)c1Cl)OCO2 [SITAXENTAN]', 8),
  ('COCCOC(=O)C1=C(C)NC(C)=C(C(=O)OC(C)C)C1c1cccc([N+](=O)[O-])c1 (stereo not given) [NIMODIPINE]', 3),
  ('Cc1ncc([N+](=O)[O-])n1CCO [METRONIDAZOLE]', 3),
  ('Cc1nccn1CC1CCc2c(c3ccccc3n2C)C1=O (stereo not given) [ONDANSETRON]', 7);

Briefly, DILI_severity_class measured for C[C@](N)(Cc1ccc(O)cc1)C(=O)O [METYROSINE] : 0

Briefly, DILI_severity_class measured for CCN1C(=O)NC(c2ccccc2)C1=O (stereo not given) [ETHOTOIN] : 3
